Reported values of binding signal for individual entries
- TARGET SYSTEM: GST-Aq-NF-kB (Amphimedon queenslandica, UniProt A9Y5G7 2-389)
- Sequence: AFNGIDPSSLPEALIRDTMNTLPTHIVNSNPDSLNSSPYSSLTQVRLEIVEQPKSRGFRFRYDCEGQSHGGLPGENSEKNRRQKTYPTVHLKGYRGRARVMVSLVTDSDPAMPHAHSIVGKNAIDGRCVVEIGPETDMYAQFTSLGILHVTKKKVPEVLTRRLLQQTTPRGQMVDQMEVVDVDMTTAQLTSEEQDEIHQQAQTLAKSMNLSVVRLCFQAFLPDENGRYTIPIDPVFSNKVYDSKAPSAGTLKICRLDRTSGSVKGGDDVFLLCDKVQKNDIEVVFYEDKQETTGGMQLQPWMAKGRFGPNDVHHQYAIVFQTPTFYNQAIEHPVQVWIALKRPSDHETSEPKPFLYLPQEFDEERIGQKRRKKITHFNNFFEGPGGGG
- TEST PROTOCOL: protein-binding microarray (PBM); PBM: ~300 nM protein, 6 mM HEPES pH 7.8, 80 mM KCl, 0.5 mM EDTA, 0.5 mM EGTA, 6% glycerol, 35 ng/ul poly-dIdC, 1% milk, 1 h, room temperature; high values mean tight binding
- CONDITION CONTEXT: dsDNA, one strand shown

CCGATTAACATCAAAATGCCCCCTGATGTTAATCGGGTCTTGATTCGCTTGACGCTGCTG : 6.11 z-score
CCGATTAACATCATACTTCCCCATGATGTTAATCGGGTCTTGATTCGCTTGACGCTGCTG : 3.58 z-score

Considering CCGATTAACATCAGGGGAAATAATGATGTTAATCGGGTCTTGATTCGCTTGACGCTGCTG , its binding signal with GST-Aq-NF-kB (Amphimedon queenslandica, UniProt A9Y5G7 2-389) was recorded as 5.68 z-score

Param item: CCGATTAACATCAAGGAATTTTCTGATGTTAATCGGGTCTTGATTCGCTTGACGCTGCTG ; param system: GST-Aq-NF-kB (Amphimedon queenslandica, UniProt A9Y5G7 2-389); output binding signal: 2.26 z-score

The sequence CCGATTAACATCACCAAAACCCCTGATGTTAATCGGGTCTTGATTCGCTTGACGCTGCTG , tested on GST-Aq-NF-kB (Amphimedon queenslandica, UniProt A9Y5G7 2-389), showed binding signal of 3.55 z-score

# binding signal measured on GST-Aq-NF-kB (Amphimedon queenslandica, UniProt A9Y5G7 2-389) for item CCGATTAACATCAGGTGTTCCCATGATGTTAATCGGGTCTTGATTCGCTTGACGCTGCTG = 2.04 z-score

Observed binding signal, GST-Aq-NF-kB (Amphimedon queenslandica, UniProt A9Y5G7 2-389), CCGATTAACATCAGAATTGCCCATGATGTTAATCGGGTCTTGATTCGCTTGACGCTGCTG : 1.1 z-score

// sequence CCGATTAACATCAGGAGTCCCCATGATGTTAATCGGGTCTTGATTCGCTTGACGCTGCTG , assay GST-Aq-NF-kB (Amphimedon queenslandica, UniProt A9Y5G7 2-389), binding signal value: 4.27 z-score

* * *

- TARGET SYSTEM: GST-Dm-Relish (Drosophila melanogaster, UniProt Q94527 99-473)
- Sequence: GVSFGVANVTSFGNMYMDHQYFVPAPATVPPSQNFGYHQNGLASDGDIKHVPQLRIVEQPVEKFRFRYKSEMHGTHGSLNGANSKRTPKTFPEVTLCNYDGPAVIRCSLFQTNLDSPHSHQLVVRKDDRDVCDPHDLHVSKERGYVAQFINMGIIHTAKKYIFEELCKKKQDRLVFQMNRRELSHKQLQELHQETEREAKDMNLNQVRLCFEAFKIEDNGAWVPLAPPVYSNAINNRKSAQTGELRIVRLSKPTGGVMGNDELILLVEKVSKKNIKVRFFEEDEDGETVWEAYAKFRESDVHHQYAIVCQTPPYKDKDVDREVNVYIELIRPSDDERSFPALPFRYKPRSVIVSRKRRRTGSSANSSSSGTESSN
- TEST PROTOCOL: protein-binding microarray (PBM); PBM: ~300 nM protein, 6 mM HEPES pH 7.8, 80 mM KCl, 0.5 mM EDTA, 0.5 mM EGTA, 6% glycerol, 35 ng/ul poly-dIdC, 1% milk, 1 h, room temperature; Ap Aiptasia and Nv Nematostella (sea anemones) / Co Capsaspora / Aq Amphimedon (sponge) / Dm Drosophila / Hu human; RHD is the Rel homology domain; high values mean tight binding
- CONDITION CONTEXT: dsDNA, one strand shown
MEASURE NAME: log10 binding signal (log10 of the value in z-score)
Give log10 of binding signal, with binding signal taken in z-score.

Example sequences with recorded log10 binding signal:
CCGATTAACATCAAAAATTTCCTTGATGTTAATCGGGTCTTGATTCGCTTGACGCTGCTG : 0.29
CCGATTAACATCAAGGGGAATCCTGATGTTAATCGGGTCTTGATTCGCTTGACGCTGCTG : 0.96

get_value(item= CCGATTAACATCAGGGGGCGGGATGATGTTAATCGGGTCTTGATTCGCTTGACGCTGCTG , readout=log10 binding signal) returns 0.54

Per the record, CCGATTAACATCAGAAATCTCCCTGATGTTAATCGGGTCTTGATTCGCTTGACGCTGCTG has log10 binding signal of 0.25

log10 binding signal reported for this sequence CCGATTAACATCAGGGGAACTACTGATGTTAATCGGGTCTTGATTCGCTTGACGCTGCTG : 0.97

The measured log10 binding signal associated with CCGATTAACATCAAATCATTCCCTGATGTTAATCGGGTCTTGATTCGCTTGACGCTGCTG reads 0.12

The recorded log10 binding signal for entry CCGATTAACATCAAACAATTCCCTGATGTTAATCGGGTCTTGATTCGCTTGACGCTGCTG equals 0.20
